This collection of values is drawn from PubChem BioAssay (EPA / NIEHS).

target: Peroxisome proliferator-activated receptor gamma (Homo sapiens) (UniProt P37231); experiment: ATG_PPARg_TRANS: Attagene TRANS-FACTORIAL HepG2 Assay for human Peroxisome Proliferator-activated Receptor-gamma (PPARg) (AID 2283007)
Sequence (P37231 whole entry, looked up): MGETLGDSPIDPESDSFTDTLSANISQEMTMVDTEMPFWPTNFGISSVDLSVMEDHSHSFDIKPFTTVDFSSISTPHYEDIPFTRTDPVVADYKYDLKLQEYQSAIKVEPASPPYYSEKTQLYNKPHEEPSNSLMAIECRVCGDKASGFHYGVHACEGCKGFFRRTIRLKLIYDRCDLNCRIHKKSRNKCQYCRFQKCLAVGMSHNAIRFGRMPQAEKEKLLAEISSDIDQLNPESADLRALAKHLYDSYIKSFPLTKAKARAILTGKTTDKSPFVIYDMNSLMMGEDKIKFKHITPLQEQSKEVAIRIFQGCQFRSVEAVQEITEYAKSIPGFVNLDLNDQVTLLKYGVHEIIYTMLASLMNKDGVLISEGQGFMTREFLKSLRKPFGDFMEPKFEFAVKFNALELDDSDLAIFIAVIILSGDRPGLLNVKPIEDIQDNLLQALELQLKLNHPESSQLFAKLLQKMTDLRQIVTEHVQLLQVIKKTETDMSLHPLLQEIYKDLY
Results filed as inconclusive are left out. Active and inactive are the calls of the source. How the source made its calls: active means hit-call score of the fitted dose curve at least 0.9, where 1 is the maximum; inconclusive means response in the unintended direction; inactive means score below 0.9.
observable: AC50

>>> df
                                   compound     recordedvalue
0             C#CC(O)CCC (stereo not drawn)          inactive
1  CCCCC(CC)COC(=O)c1ccc(N(C)C)cc1 (stereo not drawn)  30.3 µM (active)
2  c1ccc(C[P+](c2ccccc2)(c2ccccc2)c2ccccc2)cc1          inactive

---

experiment: ATG_GLI_CIS: Attagene CIS-FACTORIAL HepG2 Assay for human Zinc Finger Protein GLI1 (AID 2282945); conditions: HepG2, Attagene cis-factorial reporter mRNA, GLI element; actives raise or lower the signal
Activity calls are given as the source filed them. How the source made its calls: active means hit-call score of the fitted dose curve at least 0.9, where 1 is the maximum; inactive means score below 0.9.
Outcome codes: Y = active, N = inactive

                                    compound  assignedclass
 0              CCN(CC)c1ccc(N=Nc2ccccc2)cc1              N
 1      CCCCCCCC/C=C\CCCCCCCC(=O)N(C)CC(=O)O              N
 2    O=C1OC(=O)c2ccc3c4c(ccc1c24)C(=O)OC3=O              N
 3  NC(=O)C(F)(F)C(F)(F)C(F)(F)C(F)(F)C(N)=O              N
 4  O=S(=O)(Cl)C(F)(F)C(F)(F)C(F)(F)C(F)(F)C(F)(F)C(F)(F)C(F)(F)C(F)(F)F              N
 5               CC(C)OC(=O)COc1ccc(Cl)cc1Cl              N
 6  O=S(=O)(O)CCC(F)(F)C(F)(F)C(F)(F)C(F)(F)F              N
 7          CCCC(=O)OCC(COC(=O)CCC)OC(=O)CCC              N
 8                   CCN(CC)c1ccc(C=O)c(O)c1              N
 9                         C[Si](C)O[Si](C)C              N
10                             CC(=O)CCC(C)C              N
11  CC(C)(C)c1cc(CCC(=O)NCCCCCCNC(=O)CCc2cc(C(C)(C)C)c(O)c(C(C)(C)C)c2)cc(C(C)(C)C)c1O              N
12  O=C(Cl)C(F)(F)C(F)(F)C(F)(F)C(F)(F)C(F)(F)C(F)(F)C(F)(F)F              N
13  FC(F)(F)C(F)(F)C(F)(F)CC1CO1 (centres undefined)              N
14                             CCc1ccc(C)nc1              N
15                 O=C(c1ccccc1)c1ccc(O)cc1O              N
16                 OCC(F)(F)C(F)(F)C(F)(F)CO              N
17  OCC(O)CC(F)(F)C(F)(F)C(F)(F)C(F)(F)C(F)(F)C(F)(F)C(F)(F)C(F)(F)F (centres undefined)              N
18                   NC(O)(C(F)(F)F)C(F)(F)F              N
19  CCC(=O)OC(C)c1ccccc1 (centres undefined)              N
20                                Brc1ccccn1              N
21                O=C=Nc1cccc2c(N=C=O)cccc12              N
22  CC1=CCC2C(=O)OC(=O)C2C1 (centres undefined)              N
23  CCN(CCO)S(=O)(=O)C(F)(F)C(F)(F)C(F)(F)C(F)(F)C(F)(F)C(F)(F)C(F)(F)C(F)(F)F              N
24  COCCOCCC[Si](C)(O[Si](C)(C)C)O[Si](C)(C)C              N
25                     CCn1c2ccccc2c2ccccc21              N
26                                 CC(=O)C=O              N
27                    Cc1ccc2c(c1)OCC(=O)CO2              N
28             Nc1c(Br)cc([N+](=O)[O-])cc1Br              N
29        CCCCCCCCCCCCCC[P+](CCCC)(CCCC)CCCC              N
30            C#CC(O)CCC (centres undefined)              N
31         CC(O)C#CC(C)O (centres undefined)              Y
32                                Nc1cccnc1N              N
33                             O=c1cccc[nH]1              N
34                              N#Cc1ccccc1O              N
35              CCC(C)CO (centres undefined)              N
36        CC(C)=CCCC(C)O (centres undefined)              N
37                    O=C1C=CC(=O)N1c1ccccc1              N
38   C=C(C)C(=O)OCC(F)(F)C(F)(F)C(F)(F)C(F)F              N
39  OCC(F)(F)C(F)(F)C(F)(F)C(F)(F)C(F)(F)C(F)(F)CO              N
40  O=C(F)C1(F)C(F)(F)C(F)(F)C(F)(F)C(F)(F)C1(F)F              N
41  CC1=CC2C3C=CC(C3)C2C1C (centres undefined)              N
42  OCCCC(F)(F)C(F)(F)C(F)(F)C(F)(F)C(F)(F)C(F)(F)C(F)(F)C(F)(F)F              N
43  CCN=C1C=CC(=C(c2ccc(N(CC)CC)cc2)c2ccc(N(CC)CC)cc2)c2ccccc21              Y
44  NS(=O)(=O)C(F)(F)C(F)(F)C(F)(F)C(F)(F)C(F)(F)C(F)(F)F              N
45                          C=CCOC(=O)CC(C)C              N
46                                 Cc1cnccn1              N
47                               N#CCCOCCC#N              N
48          CCCCCCCCCCCCC[N+](C)(C)Cc1ccccc1              N
